Reference source for all entries: ChEMBL document CHEMBL3988442

- subjectOfTest: Histidine--tRNA ligase (Leishmania infantum) (UniProt A4I591)
- Sequence (whole entry): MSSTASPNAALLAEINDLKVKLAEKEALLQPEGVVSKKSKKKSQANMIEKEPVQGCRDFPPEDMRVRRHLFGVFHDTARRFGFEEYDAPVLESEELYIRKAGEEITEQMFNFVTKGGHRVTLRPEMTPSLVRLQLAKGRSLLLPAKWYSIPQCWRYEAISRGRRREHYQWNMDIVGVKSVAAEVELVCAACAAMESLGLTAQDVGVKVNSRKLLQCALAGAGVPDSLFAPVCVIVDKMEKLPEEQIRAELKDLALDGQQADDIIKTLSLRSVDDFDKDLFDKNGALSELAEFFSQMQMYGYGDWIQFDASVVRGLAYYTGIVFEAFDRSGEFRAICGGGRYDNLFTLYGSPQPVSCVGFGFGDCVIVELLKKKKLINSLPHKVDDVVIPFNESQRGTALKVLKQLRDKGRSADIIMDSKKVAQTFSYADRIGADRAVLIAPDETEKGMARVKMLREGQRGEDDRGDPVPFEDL
- assayRemarks: Leishmania infantum Histidine tRNA synthetase (LdHisRS)
- Assay type: functional
- Parameters: scale not given: in the data most compounds retested in dose-response had high values
- reportedConditions: 30 µM
Screen size: about 69,000 compounds; about 420 (0.61%) showed an effect of 50% or more. Only a selection was taken, and strong results are over-represented in it overall.
quantityKind: Percent Effect (%)
Numeric only. Scale: %

CN(C)C(=O)N1C[C@H](Oc2ccccn2)[C@H]2OCCC[C@H]21 = 8.74

Task: Any idea what its Percent Effect is? The compound is CCC(=O)Nc1cc(Br)cnc1OCC(F)(F)F
Output: 14

Task: Any idea what its Percent Effect is? The compound is COCC(=O)N1CCC(C)(c2cc(O)[nH]n2)CC1
Output: 17.1
